# testName: in vitro
# recordedConditions: human (5637 cells, CC50); Escherichia coli (UTI89, IC50), Fold Selective (CC50/IC50), synthesized sample, SID 126497311
# Protocol: The ability of the […] to bind to bacterial capsule, infect, and lyse E. coli UT189 was used as the primary assay to identify the effects of screened compounds on bacterial capsule formation. The phenotypic end-point assay measured the fluorescence generated by cellular processing of Alamar Blue as a direct indicator of cell viability. […] IC50 values were calculated using a 4 parameter Levenburg-Marquardt algorithm, with the maximum and minimum locked at 0 and 100 respectively. […]
assayMetric: selectivity ratio

- CCOc1ccc(-c2cc(NC(=O)c3c(F)cccc3F)c(C(=O)O)s2)cc1 [ML317]: 27.3
